testSummary: NOMO-1 AML cell viability reduction, primary screen, STK33 inhibitor project, CellTiter-Glo luminescence (AID 2330)
conditionInfo: NOMO-1 AML viability, 72 h, concentration not given here
Hit rate of the full screen: of about 37,000 compounds, about 2,800 (7.6%) were called active. Inconclusive results (about 1%) are left out. No stated cut-off is given here; in the data, active means inhibition above about 80%; inconclusive means no clear call, values can overlap the other calls; inactive means below that. The sample holds actives, similar compounds and a random draw of the others, so the mix is not that of the screen.
Possible outcomes: active, inactive

- compound: "COc1c(C)c2c(c(O)c1C/C=C(\\C)CCC(=O)O)C(=O)OC2"
  categoryLabel: "active"
- compound: "O=C(CSc1nnc(-c2cccs2)n1-c1ccccc1Cl)Nc1cccc(C(=O)O)c1"
  categoryLabel: "inactive"
- compound: "O=C(CSc1ncnc2sc3c(c12)CCCC3)Nc1ccc(F)c(Cl)c1"
  categoryLabel: "inactive"
- compound: "C[C@H]1O[C@@H](O[C@H]2[C@@H](O)C[C@H](O[C@H]3[C@@H](O)C[C@H](O[C@H]4CC[C@]5(C)C6C[C@@H](O)[C@]7(C)[C@@H](C8=CC(=O)OC8)CC[C@]7(O)C6CC[C@@H]5C4)O[C@@H]3C)O[C@@H]2C)C[C@H](O)[C@@H]1O (some centres not stated)"
  categoryLabel: "active"
- compound: "CC1CCC(C(C)C)C(=O)/C1=C\\c1ccc(NC(=O)CCC(=O)O)cc1 (configuration not stated)"
  categoryLabel: "inactive"
- compound: "C[C@@H]1CN([C@@H](C)CO)C(=O)c2cc(NC(=O)Nc3cccc4ccccc34)ccc2O[C@@H]1CN(C)C(=O)Nc1cccc2ccccc12"
  categoryLabel: "inactive"
- compound: "C[C@@H]1CCCCO[C@H](CN(C)S(=O)(=O)c2cccs2)[C@@H](C)CN([C@H](C)CO)C(=O)c2cc(NC(=O)Nc3ccccc3)ccc2O1"
  categoryLabel: "inactive"
- compound: "CCC(=O)O[C@]1(C(=O)CCl)[C@@H](C)CC2C3CCC4=CC(=O)C=C[C@]4(C)[C@@]3(F)[C@@H](O)C[C@@]21C (some centres not stated)"
  categoryLabel: "inactive"
- compound: "COc1ccc(OC(C)C(=O)Nc2ccc(OC)c(OC)c2)cc1 (configuration not stated)"
  categoryLabel: "inactive"
- compound: "COc1ccc(NC(=S)SC)cc1OC"
  categoryLabel: "active"
- compound: "C[C@@H]1CN([C@H](C)CO)C(=O)c2cccc(NC(=O)Nc3cccc4ccccc34)c2O[C@@H]1CN(C)Cc1ccccc1"
  categoryLabel: "inactive"
- compound: "O=C(NCc1ccccn1)C(=O)Nc1cccc(Cl)c1Cl"
  categoryLabel: "inactive"
- compound: "COC(=O)c1ccc(C(=O)OC)c(NC(=O)COc2ccc(C)cc2)c1"
  categoryLabel: "inactive"
- compound: "COc1cc(C2c3c(cc(OC)c(O)c3OC)CC(CO[C@@H]3O[C@H](CO)[C@@H](O)[C@H](O)[C@H]3O)C2CO)cc(OC)c1O (some centres not stated)"
  categoryLabel: "inactive"
- compound: "O=C(CSc1nc2sc3c(c2c(=O)[nH]1)CCC3)Nc1ccccc1C(F)(F)F"
  categoryLabel: "inactive"
- compound: "C[C@@H]1CN([C@@H](C)CO)C(=O)c2cc(NC(=O)Nc3cccc4ccccc34)ccc2O[C@H]1CN(C)Cc1ccc(Oc2ccccc2)cc1"
  categoryLabel: "active"
- compound: "COc1ccc(N(C(C)C(=O)Nc2cccc(Br)c2)S(C)(=O)=O)cc1 (configuration not stated)"
  categoryLabel: "inactive"

meta.source: PubChem BioAssay AID2330
